- experimental.conditions: in water, 323.15 K
measured.parameter: solubility (mole fraction)
Response field accepts a number only; no unit should be typed.

Param item = N[C@@H](Cc1ccccc1)C(=O)O ; retrieve measured solubility (mole fraction).
0.00433

----------
- experimental.conditions: in 1,4-dioxane, 318.15 K
measured.parameter: solubility (mole fraction)
Response field accepts a number only; no unit should be typed.

Param item = N[C@@H](Cc1ccccc1)C(=O)O ; retrieve measured solubility (mole fraction).
5.92e-05

----------
- experimental.conditions: in isobutanol, 288.15 K
measured.parameter: solubility (mole fraction)
Response field accepts a number only; no unit should be typed.

Param item = N[C@@H](Cc1ccccc1)C(=O)O ; retrieve measured solubility (mole fraction).
7.77e-05

----------
- experimental.conditions: in isopropanol, 288.15 K
measured.parameter: solubility (mole fraction)
Response field accepts a number only; no unit should be typed.

Param item = N[C@@H](Cc1ccccc1)C(=O)O ; retrieve measured solubility (mole fraction).
5.16e-05

----------
- experimental.conditions: in isobutanol, 298.15 K
measured.parameter: solubility (mole fraction)

Param item = N[C@@H](Cc1ccccc1)C(=O)O ; retrieve measured solubility (mole fraction).
0.000124

----------
- experimental.conditions: in n-butanol, 308.15 K
measured.parameter: solubility (mole fraction)
Response field accepts a number only; no unit should be typed.

Param item = N[C@@H](Cc1ccccc1)C(=O)O ; retrieve measured solubility (mole fraction).
4.72e-05

----------
- experimental.conditions: in n-butanol, 293.15 K
measured.parameter: solubility (mole fraction)
Response field accepts a number only; no unit should be typed.

Param item = N[C@@H](Cc1ccccc1)C(=O)O ; retrieve measured solubility (mole fraction).
9.8e-06

----------
- experimental.conditions: in ethanol, 298.15 K
measured.parameter: solubility (mole fraction)
Response field accepts a number only; no unit should be typed.

Param item = N[C@@H](Cc1ccccc1)C(=O)O ; retrieve measured solubility (mole fraction).
0.000165

----------
- experimental.conditions: in methyl acetate, 313.15 K
measured.parameter: solubility (mole fraction)
Response field accepts a number only; no unit should be typed.

Param item = N[C@@H](Cc1ccccc1)C(=O)O ; retrieve measured solubility (mole fraction).
4.41e-05

----------
- experimental.conditions: in n-propanol, 308.15 K
measured.parameter: solubility (mole fraction)
Response field accepts a number only; no unit should be typed.

Param item = N[C@@H](Cc1ccccc1)C(=O)O ; retrieve measured solubility (mole fraction).
6.44e-05

----------
- experimental.conditions: in ethanol, 318.15 K
measured.parameter: solubility (mole fraction)
Response field accepts a number only; no unit should be typed.

Param item = N[C@@H](Cc1ccccc1)C(=O)O ; retrieve measured solubility (mole fraction).
0.000222

----------
- experimental.conditions: in isobutanol, 308.15 K
measured.parameter: solubility (mole fraction)
Response field accepts a number only; no unit should be typed.

Param item = N[C@@H](Cc1ccccc1)C(=O)O ; retrieve measured solubility (mole fraction).
0.000187

----------
- experimental.conditions: in methanol, 293.15 K
measured.parameter: solubility (mole fraction)
Response field accepts a number only; no unit should be typed.

Param item = N[C@@H](Cc1ccccc1)C(=O)O ; retrieve measured solubility (mole fraction).
0.000866

----------
- experimental.conditions: in water, 298.15 K
measured.parameter: solubility (mole fraction)
Response field accepts a number only; no unit should be typed.

Param item = N[C@@H](Cc1ccccc1)C(=O)O ; retrieve measured solubility (mole fraction).
0.00321

----------
- experimental.conditions: in ethyl acetate, 303.15 K
measured.parameter: solubility (mole fraction)
Response field accepts a number only; no unit should be typed.

Param item = N[C@@H](Cc1ccccc1)C(=O)O ; retrieve measured solubility (mole fraction).
2.37e-05

----------
- experimental.conditions: in ethyl acetate, 288.15 K
measured.parameter: solubility (mole fraction)
Response field accepts a number only; no unit should be typed.

Param item = N[C@@H](Cc1ccccc1)C(=O)O ; retrieve measured solubility (mole fraction).
1.49e-05

----------
- experimental.conditions: in 1,4-dioxane, 313.15 K
measured.parameter: solubility (mole fraction)
Response field accepts a number only; no unit should be typed.

Param item = N[C@@H](Cc1ccccc1)C(=O)O ; retrieve measured solubility (mole fraction).
4.53e-05

----------
- experimental.conditions: in n-butanol, 303.15 K
measured.parameter: solubility (mole fraction)
Response field accepts a number only; no unit should be typed.

Param item = N[C@@H](Cc1ccccc1)C(=O)O ; retrieve measured solubility (mole fraction).
3.48e-05

----------
- experimental.conditions: in isobutanol, 283.15 K
measured.parameter: solubility (mole fraction)
Response field accepts a number only; no unit should be typed.

Param item = N[C@@H](Cc1ccccc1)C(=O)O ; retrieve measured solubility (mole fraction).
7.49e-05

----------
- experimental.conditions: in n-butanol, 288.15 K
measured.parameter: solubility (mole fraction)
Response field accepts a number only; no unit should be typed.

Param item = N[C@@H](Cc1ccccc1)C(=O)O ; retrieve measured solubility (mole fraction).
8.4e-06

----------
- experimental.conditions: in methyl acetate, 298.15 K
measured.parameter: solubility (mole fraction)
Response field accepts a number only; no unit should be typed.

Param item = N[C@@H](Cc1ccccc1)C(=O)O ; retrieve measured solubility (mole fraction).
1.49e-05

----------
- experimental.conditions: in isopropanol, 293.15 K
measured.parameter: solubility (mole fraction)
Response field accepts a number only; no unit should be typed.

Param item = N[C@@H](Cc1ccccc1)C(=O)O ; retrieve measured solubility (mole fraction).
6.41e-05

----------
- experimental.conditions: in methyl acetate, 318.15 K
measured.parameter: solubility (mole fraction)

Param item = N[C@@H](Cc1ccccc1)C(=O)O ; retrieve measured solubility (mole fraction).
5.46e-05

----------
- experimental.conditions: in isopropanol, 318.15 K
measured.parameter: solubility (mole fraction)
Response field accepts a number only; no unit should be typed.

Param item = N[C@@H](Cc1ccccc1)C(=O)O ; retrieve measured solubility (mole fraction).
0.00015

----------
- experimental.conditions: in n-propanol, 313.15 K
measured.parameter: solubility (mole fraction)

Param item = N[C@@H](Cc1ccccc1)C(=O)O ; retrieve measured solubility (mole fraction).
8.96e-05

----------
- experimental.conditions: in n-butanol, 318.15 K
measured.parameter: solubility (mole fraction)

Param item = N[C@@H](Cc1ccccc1)C(=O)O ; retrieve measured solubility (mole fraction).
8.5e-05

----------
- experimental.conditions: in 1,4-dioxane, 298.15 K
measured.parameter: solubility (mole fraction)
Response field accepts a number only; no unit should be typed.

Param item = N[C@@H](Cc1ccccc1)C(=O)O ; retrieve measured solubility (mole fraction).
3.09e-05

----------
- experimental.conditions: in methanol, 288.15 K
measured.parameter: solubility (mole fraction)

Param item = N[C@@H](Cc1ccccc1)C(=O)O ; retrieve measured solubility (mole fraction).
0.000807

----------
- experimental.conditions: in ethanol, 323.15 K
measured.parameter: solubility (mole fraction)
Response field accepts a number only; no unit should be typed.

Param item = N[C@@H](Cc1ccccc1)C(=O)O ; retrieve measured solubility (mole fraction).
0.000231

----------
- experimental.conditions: in ethanol, 313.15 K
measured.parameter: solubility (mole fraction)
Response field accepts a number only; no unit should be typed.

Param item = N[C@@H](Cc1ccccc1)C(=O)O ; retrieve measured solubility (mole fraction).
0.000208

----------
- experimental.conditions: in n-propanol, 293.15 K
measured.parameter: solubility (mole fraction)
Response field accepts a number only; no unit should be typed.

Param item = N[C@@H](Cc1ccccc1)C(=O)O ; retrieve measured solubility (mole fraction).
3.34e-05

----------
- experimental.conditions: in isopropanol, 298.15 K
measured.parameter: solubility (mole fraction)
Response field accepts a number only; no unit should be typed.

Param item = N[C@@H](Cc1ccccc1)C(=O)O ; retrieve measured solubility (mole fraction).
7.29e-05

----------
- experimental.conditions: in acetonitrile, 303.15 K
measured.parameter: solubility (mole fraction)
Response field accepts a number only; no unit should be typed.

Param item = N[C@@H](Cc1ccccc1)C(=O)O ; retrieve measured solubility (mole fraction).
1.8e-05

----------
- experimental.conditions: in acetone, 313.15 K
measured.parameter: solubility (mole fraction)
Response field accepts a number only; no unit should be typed.

Param item = N[C@@H](Cc1ccccc1)C(=O)O ; retrieve measured solubility (mole fraction).
0.000293

----------
- experimental.conditions: in acetonitrile, 298.15 K
measured.parameter: solubility (mole fraction)
Response field accepts a number only; no unit should be typed.

Param item = N[C@@H](Cc1ccccc1)C(=O)O ; retrieve measured solubility (mole fraction).
1.55e-05

----------
- experimental.conditions: in n-butanol, 298.15 K
measured.parameter: solubility (mole fraction)
Response field accepts a number only; no unit should be typed.

Param item = N[C@@H](Cc1ccccc1)C(=O)O ; retrieve measured solubility (mole fraction).
2.2e-05

----------
- experimental.conditions: in methyl acetate, 283.15 K
measured.parameter: solubility (mole fraction)
Response field accepts a number only; no unit should be typed.

Param item = N[C@@H](Cc1ccccc1)C(=O)O ; retrieve measured solubility (mole fraction).
4.3e-06

Data provenance is BigSolDB 2.1.
